In this section we review reported melting point values for a set of compounds.

>>> recorded_result("N#Cc1cc(F)cc(-c2ccc3c(c2)C(C2CC2)(C2CC2)OC(=O)N3)c1")
"250 to 252 °C"
>>> recorded_result("Cc1ccc(C(c2ccc(C)cc2)N2CCCC2)cc1")
"61 to 63 °C"
>>> recorded_result("CCOC(=O)Cn1c(=S)c2cc(Cl)ccc2n(Cc2ccc(Br)cc2F)c1=O")
"89 to 90 °C"
>>> recorded_result("C[C@H]1C[C@@](O)(c2cnc(Sc3ccc4c(c3)CC(=O)N4C)s2)CCO1")
"140 °C"
>>> recorded_result("O=C(OCC(Cl)(Cl)Cl)N1C2CCC1CC(Sc1ccccc1)C2 (stereo not given)")
"83 to 84.5 °C"
>>> recorded_result("COc1cc2[nH]c(C(=O)O)cc(=O)c2c2cccnc12")
"286 to 288 °C"
>>> recorded_result("Nc1ccccc1C(=O)OC1CCN(Cc2ccccc2)CC1")
"87 to 88 °C"
>>> recorded_result("CNCC(=O)Nc1ccc(S(=O)(=O)c2cccc(Cl)c2)cc1")
"110 to 112 °C"
>>> recorded_result("Cc1ccc(Cc2nc3c(nnn3C(C)CCCc3ccccc3)c(=O)[nH]2)cc1 (stereo not given)")
"130 °C"

Now look at this entry.
Prompt line: Give the measured melting point of CNc1ccc(Cl)cc1C(O)c1ccccc1Cl (stereo not given) .
Response line: 106 to 108 °C

----------
The compounds listed here are annotated with their melting point.

>>> recorded_result("CC1(C)Oc2ccccc2C=C1/C=C/C=C/C=C/C(=O)O")
"180 to 182 °C"
>>> recorded_result("O=C(O)c1c(F)cccc1NC1CCN(Cc2ccccc2)CC1")
"233 to 236 °C"
>>> recorded_result("Cc1ccc2c(c1C)OC(C)C(NNc1ncnc3c1ncn3C1OC(CO)C(O)C1O)C2 (stereo not given)")
"109 to 113 °C"
>>> recorded_result("O=C(Nc1noc2ccccc12)N1CCN(c2nc(-c3ccccn3)ns2)CC1")
"222 to 223 °C"

Prompt line: // query melting point value for entry NCC(CC(=O)O)C1CCC1 (stereo not given)
Response line: 115 to 117 °C

Prompt line: Any idea what melting point was measured for CC(C)CNC(=O)c1ccc(C(=O)O)cc1[N+](=O)[O-] ?
Response line: 255 to 257 °C

Prompt line: I'd like to know its melting point. The compound in question is CCOC(=O)N1CCN(c2c(F)c(N)c3c(=O)c(C(=O)O)cn(C4CC4)c3c2F)C(C)C1 (stereo not given)
Response line: 220 to 225 °C

Prompt line: I am curious: what melting point value has been reported for CCCCC(=O)Oc1cccc(NC(=O)C=C(C)OC)c1 ?
Response line: 84 °C

Prompt line: Endpoint output: melting point of CNc1nc(-c2cccc(NC(=O)c3ccc(OC)cc3)c2)c2cc(OC)c(OC)cc2n1 . Value?
Response line: 219 to 221 °C

Prompt line: # lookup: melting point of Cc1ccc(Cl)c2[nH]c(=O)oc(=O)c12
Response line: 248 to 250 °C

----------
Overview of recorded melting point for various molecules

Completed entries (count: 2):
>>> recorded_result("CCOCC1=NNC(=O)N(N=Cc2cccnc2)C1")
"156 to 158 °C"
>>> recorded_result("Cc1ncc2c(c1OCC(=O)O)COC2c1ccc(Cl)cc1 (configuration not stated)")
"226 to 230 °C"

Prompt line: Would you kindly share the measured melting point for CCCC(=O)C1=C(O)CC2(CCC(C)CC2)OC1=O (configuration not stated) ?
Response line: 60 to 63 °C

Prompt line: Name the reported melting point value associated with the molecule N#CCC(C(=O)N1C(=O)OCC1c1ccccc1)c1ccccc1F (configuration not stated)
Response line: 179 to 181 °C

Prompt line: For the molecule shown here, O=C1CC(=O)CC(c2ccc(Cl)cc2Cl)C1 , give the reported melting point.
Response line: 192 to 196 °C

Prompt line: What value of melting point has been recorded for this entry: COC(=O)c1nc(Cl)nc(N)c1OC
Response line: 158 °C

Prompt line: I'd like to know its melting point. The molecule in question is N[C@@H]1C[C@H]2CC[C@@H]1N(c1cc3c(cc1F)c(=O)c(C(=O)O)cn3C1CC1)C2
Response line: 267 to 270 °C

----------
Measured melting point values are reported for all entries that follow.

>>> recorded_result("O=C(O)c1ccc(OCCCCCCC2CC2)c(F)c1F")
"100 to 108 °C"
>>> recorded_result("CC1OC(=O)C(c2cccc(C(F)(F)F)c2)=C1O (stereo unspecified)")
"175 °C"
>>> recorded_result("CCOC(=O)c1nc(-c2ccc(F)cc2)c(-c2ccc(=O)n(C(C)C)n2)s1")
"193 to 194 °C"
>>> recorded_result("O=C1NCCc2c(-c3cccnc3)[nH]c3cccc1c23")
"260 to 262 °C"

Prompt line: Need melting point of COc1cc(C(=O)O)ccc1Cc1cccc2ccc(CCCC(=O)N3CCOCC3)cc12 , thanks.
Response line: 160 to 161 °C

Prompt line: Give its melting point value. Item: CCCc1c(OCCCSc2ccc(C(=O)O)cn2)ccc(C(C)=O)c1O
Response line: 145 to 147 °C

Prompt line: Reported melting point for CCCCC(CC)COC(=O)c1cccc(S(N)(=O)=O)c1 (stereo unspecified) : what is it?
Response line: 40 to 42 °C

Prompt line: Which melting point reading was recorded for the molecule O=C(CCCOc1ccccc1OCc1ccccc1)C(F)(F)F ?
Response line: 50 to 51 °C

Prompt line: Which melting point value is on record for CN1C(=O)C2CC(c3ccc(Cl)cc3)(C2)C1=O ?
Response line: 155 to 156 °C

Prompt line: Bench note: what melting point did Cc1cc(O)ccc1NC(=O)OC(C)(C)C show?
Response line: 143 to 144 °C

Prompt line: Query: melting point; subject: CC(C)(C)OC(=O)N1CCN(C(=O)OCc2ccccc2)CC1
Response line: 90.5 to 91.5 °C

Prompt line: Tell me the measured melting point of Cc1cc(OC/C=C/c2ccc(C(C)C)cc2)c(C)c(C)c1NC=O , please.
Response line: 165 to 167 °C

Prompt line: Give the measured melting point of COc1ccccc1C=Cc1ccccc1 .
Response line: 69 to 70 °C

Prompt line: Consider the molecule CCOC(=O)C1Oc2cccnc2NC1=O (stereo unspecified) and give its measured melting point.
Response line: 160 to 162 °C

Prompt line: Given COC(=O)c1c(Cl)cc(Cl)cc1NC(=O)CSc1ccc(NC(=O)Cc2ccccc2)cc1 , state its recorded melting point.
Response line: 156 to 158 °C

Prompt line: Can you share its melting point? I mean this molecule: COCO[C@@H]1[C@H]2OC(C)(C)O[C@H]2[C@H](O[C@H]2C[C@H]3OC(C)(C)OC[C@]34C3C(CC[C@]4(O)C2)[C@@]2(O)CC[C@H](C#N)[C@@]2(C)C[C@H]3OCOC)O[C@H]1C (stereo partly specified)
Response line: 97 to 99 °C

Prompt line: I'd like to know its melting point. The molecule in question is CCOC(=O)Cc1c(C)nn(-c2ccccc2)c1C
Response line: 86 to 87 °C

Prompt line: Field request: melting point | item: COC(=O)c1cc(C(=O)OC)c(NCCCc2ccccc2)cn1
Response line: 102 to 104 °C

Prompt line: What does the record list as melting point for CN(C)C(=O)C(C)(C)CCCCC(=O)CCCCC(C)(C)C(=O)O ?
Response line: 91.5 to 93.5 °C

Prompt line: Please look up its melting point: COc1c(O)cc(O)c2c(=O)cc(-c3ccccc3)oc12
Response line: 202 to 203 °C

Prompt line: Name the recorded melting point for Fc1ccc(Nc2ncnc3cnc(NC4CCC(N5CCOCC5)CC4)nc23)cc1Cl (stereo unspecified) .
Response line: 233 to 235 °C

----------
Reported melting point values for a set of molecules

Recorded melting point, per entry:
>>> recorded_result("Nc1nc(N2CCOCC2)c2ncn(C3C=CC(CO)C3)c2n1 (stereo not given)")
"165 to 167 °C"
>>> recorded_result("COc1cc(OCc2ccccn2)ccc1C=CC(=O)CC(C)=O")
"81 to 82 °C"
>>> recorded_result("Cc1cc(NCc2ccccc2)c2cc(NC(=O)C=Cc3ccccc3Cl)ccc2n1")
"253 to 254 °C"
>>> recorded_result("CC(C)(C)OC(=O)Nc1cccc(C2(O)COC2)c1")
"121 to 123 °C"
>>> recorded_result("c1ccc2c(c1)Cc1ccccc1N2")
"170 to 171 °C"
>>> recorded_result("c1cn(CCCc2ccc(OCc3coc(-c4ccc(OCc5ccc6c(c5)OCO6)cc4)n3)cc2)cn1")
"124 to 125 °C"

Prompt line: Which melting point is listed for CCCCCCCCc1ccc(C(=O)NN)cc1 ?
Response line: 90 °C

Prompt line: Which melting point value is on record for CCCCCCCCCCCCCCCCCCOC(=O)P(=O)(O)O ?
Response line: 81 to 82 °C

Prompt line: Any idea what melting point was measured for COc1ccc(S(=O)(=O)Nc2cccc(Cl)c2/C=C/c2ccncc2)cc1 ?
Response line: 188 to 190 °C

Prompt line: Item O=S(=O)(c1cccc2ccccc12)c1n[nH]c2ccc(OCC3CCNCC3)cc12 has what recorded melting point?
Response line: 175 to 177 °C

Prompt line: Can you look up the measured melting point of CCCCCCCN(CCCCCSc1nc2c([nH]1)CCCC2)C(=O)Nc1ccc(F)cc1F for me?
Response line: 98 to 100 °C

Prompt line: Entry CNc1nc(N)nc(-c2ccc(-c3ccccc3)cc2)n1 has what melting point?
Response line: 237 to 238 °C

Prompt line: Given the entry Cc1cc(C)cc(CCCn2c(=O)c3c(Cl)cc(Cl)cc3n(Cc3ccccc3)c2=O)c1 , report its measured melting point.
Response line: 144 to 147 °C

Prompt line: Request the reported melting point associated with O=C(CBr)CCCCCCN1C(=O)c2ccccc2C1=O
Response line: 83 to 86 °C

Prompt line: Return reported melting point; argument: Fc1ccc(C(c2ccccc2Cl)N2CCN(CCCOC(c3ccccc3)c3ccccc3)CC2)cc1 (stereo not given)
Response line: 98 to 99 °C

Prompt line: Request the reported melting point associated with CN(C)CCNc1ccc2c3c(nn2CCNC(=O)OC(C)(C)C)-c2cnccc2C(=O)c13
Response line: 225 to 227 °C

Prompt line: Which melting point is listed for O=c1c2ccccc2nc(-c2cc(-c3ccncc3)c(N3CCOCC3)s2)n1-c1ccc(Cl)cc1 ?
Response line: 195 to 197 °C

Prompt line: Fill blank: measured melting point of the molecule COc1ccc(-c2nc(Cl)nc(Cl)n2)cc1 is ____.
Response line: 131 to 134 °C

Prompt line: Consider the molecule O=C(O)c1cc(OCc2ccccc2)c(OCc2ccccc2)c(OCc2ccccc2)c1 and give its measured melting point.
Response line: 194 to 195 °C

Prompt line: Any idea what melting point was measured for Cc1cc(C(N)=O)ncc1C(c1c(F)ccc(F)c1F)S(=O)(=O)c1ccc(C(F)(F)F)nc1 (stereo not given) ?
Response line: 237 to 238 °C
